tested on: Monocotyledonous and dicotyledonous test plants; experiment: Example B2: post-emergence herbicidal action, 2 kg of AS/ha; format: in vivo; design: key: 1 = complete damage, 9 = no effect; conditions: test plant Solanum, 4- to 6-leaf stage, about 18 days, scale 1-9
Excerpt: […]
Below, each entry is listed with its recorded post-emergence action rating, Solanum.
MEASURE: post-emergence action rating, Solanum

COMPOUND | VALUE_REPORTED
Cc1nc(C(F)(F)F)ccc1C(=O)C1=C([O-])C2CCC(C2)C1=O.[K+] (stereo not shown) [Compound 1.376] | 2
COCc1nc(C(F)(F)F)ccc1C(=O)C1=C(O)C(C)(C)ON(C)C1=O [Compound 4.021] | 1
Cc1c(C(=O)C2=C(O)C3CCC(C3)C2=O)ccc(C(F)(F)F)[n+]1[O-] (stereo not shown) [Compound 1.06] | 1
Cc1nc(C(F)(F)F)ccc1C(=O)C1=C(OC(=O)C2CC2)C2CCC(C2)C1=O (stereo not shown) [Compound 1.403] | 2
